# credit: PubChem BioAssay AID1159580

ASSAY PROCEDURE: chemical genetic growth profiling, strain panel (AID 1159580);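 further: tested at 20 µM; growth read once vehicle control cultures reached saturation at 30 °C; lower values mean less growth of the strain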
CONDITION NOTES: S. cerevisiae deletion strains, growth OD, locus YBR231C, strain swc5
The whole screen tested about 5,500 compounds, of which about 2,000 (36%) were called active. About 18% were inconclusive and are not listed. No stated cut-off is given here; in the data, active means normalized growth mostly below about 0.91 (no sharp cut-off); inconclusive means no clear call, values can overlap the other calls; inactive means mostly above about 0.92. The list shows a part of the results.
Outcomes: active, inactive

COMPOUND	LABEL CLASS
CC(=O)O[C@H]1C(=O)[C@@]2(C)C([C@H](OC(=O)c3ccccc3)[C@]3(O)C[C@H](O)C(C)=C1C3(C)C)[C@]1(OC(C)=O)CO[C@@H]1C[C@@H]2O (some centres not stated)	inactive
COc1ccc([C@@H]2CC(=O)c3c(O)cc(O)cc3O2)cc1O	inactive
CCOC(=O)c1ncn2c1CN(C)C(=O)c1cc(F)ccc1-2	inactive
CN=C(NC#N)NCCSCc1nc(N=C(N)N)cs1	inactive
C[N+](C)(C)CCOP(=O)([O-])OP(=O)(O)OC[C@H]1OC(n2ccc(N)nc2=O)[C@H](O)[C@@H]1O (some centres not stated)	inactive
NC(=O)N1c2ccccc2CC(=O)c2ccccc21	inactive
COc1ccc(-c2coc3c(OC)c(OC)cc(O)c3c2=O)cc1	inactive
COc1ccc2c(c1)OC[C@@H](Cc1ccc(OC)c(OC)c1)[C@@H]2O	inactive
CC(C)[N+](C)(CCOC(=O)C1c2ccccc2Oc2ccccc21)C(C)C	inactive
CC(C)=CCc1c(O)cc2oc(C)cc(=O)c2c1O	inactive
O=C(O)c1ccccc1OP(=O)(O)O	inactive
CCC(C(=O)O)c1ccccc1 (configuration not stated)	inactive
OCc1ccccc1O[C@@H]1O[C@H](CO)[C@@H](O)[C@H](O)[C@H]1O	inactive
Cc1ccc(O)cc1	inactive
CC1(C)C2CC[C@]3(C)C(C(=O)C=C4[C@H]5C[C@@](C)(C(=O)O)CC[C@]5(C)CC[C@]43C)[C@@]2(C)CC[C@@H]1O (some centres not stated)	inactive
O=C(O)c1cc(=O)c2ccc(Cl)cc2[nH]1	inactive
CO[C@H]1C[C@H](O[C@H]2[C@H](C)[C@@H](OC3O[C@H](C)C[C@H](N(C)C)[C@H]3O)[C@@H](C)C[C@]3(CO3)C(=O)[C@H](C)[C@@H](O)[C@@H](C)[C@@H](C)OC(=O)[C@@H]2C)O[C@@H](C)[C@@H]1O (some centres not stated)	inactive
COc1ccc2cc1Oc1ccc(cc1)C[C@H]1c3cc(c(OC)cc3CCN1C)Oc1c(OC)c(OC)cc3c1[C@H](C2)N(C)CC3	inactive
COc1ccc2cc1Oc1ccc(cc1)C[C@H]1c3c(cc4c(c3Oc3cc5c(cc3OC)CCN(C)[C@@H]5C2)OCO4)CCN1C	inactive
OCC(O)Cc1ccc2c(c1)OCO2 (configuration not stated)	inactive
NC(N)=Nc1nc(CSCCC(N)=NS(N)(=O)=O)cs1	inactive
O=C(/C=C/c1ccccc1)O[C@H]1C[C@@H](O)[C@]2(O)C=CO[C@@H](O[C@@H]3O[C@H](CO)[C@@H](O)[C@H](O)[C@H]3O)[C@H]12	inactive
O=C(/C=C/C=C/c1ccc2c(c1)OCO2)N1CCCCC1	inactive
CC1(C)C2CC[C@]3(C)C(C(=O)C=C4[C@@H]5C[C@@](C)(C(=O)O)CC[C@]5(C)CC[C@]43C)[C@@]2(C)CC[C@@H]1O (some centres not stated)	inactive
C[C@@H](N)CO	inactive
COc1ccc2c(c1)OC[C@@H](Cc1ccc(OC)c(OC)c1)[C@H]2O	inactive
COc1ccc(C(=O)c2ccccc2)c(O)c1	active
CC(C(=O)O)c1ccc2c(c1)[nH]c1ccc(Cl)cc12 (configuration not stated)	inactive
CC(C)[C@H](N)C(=O)OCCOCn1cnc2c(=O)[nH]c(N)nc21	inactive
CCc1ccc(CCOc2ccc(CC3SC(=O)NC3=O)cc2)nc1 (configuration not stated)	inactive
O=[N+]([O-])O[C@H]1CO[C@H]2[C@@H]1OC[C@H]2O[N+](=O)[O-]	inactive
O=C1CC(c2ccc(O)c(O)c2)Oc2cc(O)cc(O)c21 (configuration not stated)	inactive
